tgt: T1, Ebola GPdTM (IBT Bioservices) (Ebola virus, UniProt Q05320 33-650)
T1 sequence: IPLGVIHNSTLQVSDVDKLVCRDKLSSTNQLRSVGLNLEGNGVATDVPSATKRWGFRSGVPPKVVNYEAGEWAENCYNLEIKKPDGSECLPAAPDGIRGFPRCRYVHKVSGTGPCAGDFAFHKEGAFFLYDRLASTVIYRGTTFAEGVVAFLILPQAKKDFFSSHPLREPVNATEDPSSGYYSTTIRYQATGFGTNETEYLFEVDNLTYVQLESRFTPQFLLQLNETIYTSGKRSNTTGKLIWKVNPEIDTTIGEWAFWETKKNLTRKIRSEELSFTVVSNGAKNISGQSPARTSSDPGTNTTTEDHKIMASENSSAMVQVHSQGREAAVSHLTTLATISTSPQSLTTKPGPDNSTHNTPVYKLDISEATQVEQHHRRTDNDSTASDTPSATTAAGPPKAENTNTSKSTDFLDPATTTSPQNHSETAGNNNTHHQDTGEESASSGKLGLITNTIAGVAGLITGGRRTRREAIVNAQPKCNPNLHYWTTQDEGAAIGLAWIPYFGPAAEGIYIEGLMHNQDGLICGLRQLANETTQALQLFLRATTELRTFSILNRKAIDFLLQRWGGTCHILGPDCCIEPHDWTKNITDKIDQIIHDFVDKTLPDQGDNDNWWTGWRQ
protocol-text: ELISA, GPdTM coated at 1 µg/mL, anti-human IgG Fc-HRP detection
measurement-type: pEC50
Scale for pEC50: -log10 of concentration given in mol/L; no unit attached.

I would be grateful if you could share the reported pEC50 for 2G4.6 (antibody, V domains shown) VH: EVQLLESGGGLVQPGGSLRLSCVASGFTFSNYWMNWVRQAPGKGLEWLAEIRLKSNNYATHYSASVKGRFTISRDKSKSTLYLQMNTLQAEDSAIYYCTRGNGNYRAMDYWGQGTLVTVSS VL: DIVMTQSPSSLSASVGDRVTITCRASENIYSSLAWYQQKPGKSPQLLVYSATILADGVPSRFSGSGSGTQYTLTISSLQPEDFATYYCQHFWGTPYTFGGGTKVEIK .
9.96

I would be grateful if you could share the reported pEC50 for 2G4.3 (antibody, V domains shown) VH: EVQLLESGGGLVQPGGSLRLSCVASGFTFSNYWMNWVRQAPGKGLEWLGFIRLKSNNYATHYSASVKGRFTISRDKSKSTLYLQMNTLQAEDSAIYYCTRGNGNYRAMDYWGQGTLVTVSS VL: DIVMTQSPSSLSASVGDRVTITCRASENIYSSLAWYQQKPGKSPQLLVYSATILADGVPSRFSGSGSGTQYTLTISSLQPEDFATYYCQHFWGTPYTFGGGTKVEIK .
9.89

I would be grateful if you could share the reported pEC50 for 4G7.10 (antibody, V domains shown) VH: QVQLVQSGAEVKKPGSSVKVSCKASGSSFTGFSMNWVRQAPGQSLEWIGNIDTYYGGTTYNGKFKGRVTLTVDKSTSTAYMELSSLRSEDTAVYYCARSAYYGSTFAYWGQGTLVTVSS VL: DIQMTQSPSSLSASVGDRVTITCRASENIYSYLAWYQQKPGKSPKLLVYNAKTLIEGVPSRFSGSGSGTDFTFTISSLQPEDIATYFCQHHFGTPFTFGQGTKVEIK .
9.92

I would be grateful if you could share the reported pEC50 for 4G7.9 (antibody, V domains shown) VH: QVQLVQSGAEVKKPGSSVKVSCKASGSSFTGFSMNWVRQAPGQSLEWIGNIDTYYGGTTYNGKFKGRVTLTVDKSTSTAYMELSSLRSEDTAVYYCARSAYYGSTFAYWGQGTLVTVSS VL: DIQMTQSPSSLSASVGDRVTITCRASENIYSYLAWYQQKPGKAPKLLVYNAKTLIEGVPSRFSGSGSGTDFTFTISSLQPEDIATYYCQHHFGTPFTFGQGTKVEIK .
10.00

I would be grateful if you could share the reported pEC50 for 4G7 wild type (parent mouse monoclonal antibody 4G7) (antibody, V domains shown) VH: EVQLQQSGPELEMPGASVKISCKASGSSFTGFSMNWVKQSNGKSLEWIGNIDTYYGGTTYNQKFKGKATLTVDKSSSTAYMQLKSLTSEDSAVYYCARSAYYGSTFAYWGQGTLVTVSS VL: DIVMTQSPASLSASVGETVTITCRASENIYSYLAWYQQKQGKSPQLLVYNAKTLIEGVPSRFSGSGSGTQFSLKINSLQPEDFGSYFCQHHFGTPFTFGSGTELEIK .
10.14

Values compiled from patent US20210095007A1.
